Give Change for every item shown.
- Organism: Rattus norvegicus
- protocol-summary: Maximum change in MAP in rat
- Assay type: functional
Express it in %; write the number only.

(Q) Look up Change: O=S1(=O)NC(NC2CCCC2)=Nc2cc(Cl)sc21
(A) 29

(Q) Look up Change: O=S1(=O)NC(NC2CCC2)=Nc2cc(Cl)sc21
(A) 5

(Q) Look up Change: CCCNC1=NS(=O)(=O)c2sc(Cl)cc2N1
(A) 13

(Q) Look up Change: CC(C)(C)NC1=NS(=O)(=O)c2sc(Cl)cc2N1
(A) -36

(Q) Look up Change: CC(C)NC1=NS(=O)(=O)c2sc(Cl)cc2N1
(A) -19

(Q) Look up Change: CC1(NC2=NS(=O)(=O)c3sc(Cl)cc3N2)CC1 [TIFENAZOXIDE]
(A) -4

(Q) Look up Change: CCC(C)(C)NC1=NS(=O)(=O)c2sc(Cl)cc2N1
(A) -34

(Q) Look up Change: CC1=Nc2ccc(Cl)cc2S(=O)(=O)N1 [DIAZOXIDE]
(A) -26

(Q) Look up Change: CC[C@H](C)NC1=NS(=O)(=O)c2sc(Cl)cc2N1
(A) -7

(Q) Look up Change: CC[C@@H](C)NC1=NS(=O)(=O)c2sc(Cl)cc2N1
(A) -17

(Q) Look up Change: CC1(NC2=NS(=O)(=O)c3sc(Cl)cc3N2)CCC1
(A) -48
